# assayedTarget: 5-LO in A23187-stimulated human PMNL (Homo sapiens, UniProt P09917)
# Construct: Freshly isolated PMNL (1 × 10^6 cells/mL) in PBS buffer pH 7.4; endogenous in cells; host or cells: primary human PMNL (neutrophils) isolated from blood
# Sequence (P09917 whole entry): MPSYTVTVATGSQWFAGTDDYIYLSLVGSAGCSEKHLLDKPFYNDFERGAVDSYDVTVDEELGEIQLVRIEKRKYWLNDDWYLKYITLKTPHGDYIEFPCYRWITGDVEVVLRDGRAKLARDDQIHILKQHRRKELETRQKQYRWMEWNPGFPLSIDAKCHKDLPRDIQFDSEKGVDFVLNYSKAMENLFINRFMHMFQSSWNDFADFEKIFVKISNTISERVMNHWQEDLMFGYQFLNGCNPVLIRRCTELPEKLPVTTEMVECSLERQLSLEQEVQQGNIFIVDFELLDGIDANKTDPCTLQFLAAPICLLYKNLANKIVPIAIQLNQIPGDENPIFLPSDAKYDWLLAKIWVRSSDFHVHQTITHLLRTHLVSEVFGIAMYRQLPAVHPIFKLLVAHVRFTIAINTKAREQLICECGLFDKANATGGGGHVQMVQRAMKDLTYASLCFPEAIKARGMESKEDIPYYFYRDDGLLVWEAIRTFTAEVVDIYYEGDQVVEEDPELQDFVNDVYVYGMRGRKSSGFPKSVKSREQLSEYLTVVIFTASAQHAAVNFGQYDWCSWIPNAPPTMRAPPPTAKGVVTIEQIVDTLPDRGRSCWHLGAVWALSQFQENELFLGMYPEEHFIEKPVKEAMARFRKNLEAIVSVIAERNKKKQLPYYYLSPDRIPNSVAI
# assayName: 5-Lipoxygenase inhibition in a cell-based assay (PMNL)
# assayContext: PMNL; 10 µM; % relative to vehicle (DMSO); read-out: 5-LO Residual Activity (PMNL, 10 µM)
reportedMetric: remaining activity at 10 µM (%)

1) Oc1ccc(/C=C/c2nc3ccccc3s2)cc1 [BZTst2] : 22.9
2) C(=C\c1nc2ccccc2s1)/c1ccccc1 [BZTst1, (E)-2-styrylbenzo[d]thiazole] : 48.7
3) Oc1ccc(/C=C/c2nc3ccccc3s2)cc1O [BZTst4] : 0.79
4) COc1ccc(/C=C/c2nc3ccccc3s2)cc1 [BZTst3, (E)-2-(4-methoxystyryl)benzo[d]thiazole] : 75.3

[I] COc1ccc(/C=C/c2nc3ccccc3s2)cc1O [BZTst5]
[II] COc1cc(/C=C/c2nc3ccccc3s2)ccc1O [BZTst6]
Query :: Lab log: flag the item ( I or II ) with the smaller remaining activity at 10 µM figure. The response must carry the label of the picked entry.
Result :: II
